Give survival for every item shown.
System: Wild type
Test Description: S. aureus survival, RN4220 and DeltatarO strains – OD600, teichoic acid synthesis inhibitors, primary screen (AID 463173)
Condition Context: S. aureus RN4220 wild type/DeltatarO growth, OD600, 18 h, stronger effect = lower value, screened at 18.75 µg/mL (by protocol)
Screen size: about 52,000 compounds; about 1,700 (3.3%) were called active. Only a selection was taken, and actives are over-represented in it overall.
Numbers only, in %.

For each of the compounds below, state survival.
1. COc1ccc(/C=C(/C#N)c2nc(-c3ccc(-c4ccccc4)cc3)cs2)cc1
2. Cc1nc(C)c(CC(=O)O)c(=O)[nH]1
3. CCc1ccc(/C=C(/C#N)c2nc(-c3ccc(C)cc3)cs2)cc1
4. Cc1nc(-c2cccc(F)c2)sc1CCNC(=O)C(=O)Nc1ccc2c(c1)OCCO2
5. CC1CCN(C(c2ccccc2)c2sc3nc(-c4ccco4)nn3c2O)CC1 (configuration not stated)
6. Oc1ccc(NCc2ccc(OCc3ccccc3)cc2)cc1
7. CCNc1c(NC(=O)c2ccccc2OCC)c(=O)oc2ccccc12
8. COc1ccc(C)cc1NC(=O)C(NS(=O)(=O)c1cccc2nsnc12)c1ccccc1 (configuration not stated)

a:
1. 66
2. 112
3. -2
4. 68
5. 68
6. 87
7. 90
8. 64

For each of the compounds below, state survival.
1. Cc1ccc(-n2ncc(C(=O)NCCN3CCCC3)c2C2CCN(C(=O)OC(C)(C)C)CC2)cc1
2. Cc1ccc(CCNC(=O)c2ccc(CSCc3ccc(C)cc3)o2)cc1
3. CCOc1ccc(-c2csc(/C(C#N)=C/c3ccc(Br)cc3)n2)cc1
4. c1ccc(CNc2nc3ccccc3c3nc(-c4ccccc4)nn23)cc1
5. CC(C)c1ccc(-c2nnn(CC(N)=O)n2)cc1
6. Cc1ccc(/C=C(\C#N)c2nc(-c3ccc(-c4ccccc4)cc3)cs2)cc1
7. N#C/C(=C/c1ccc(Cl)cc1)c1nc(-c2ccc(Br)cc2)cs1
8. N#C/C(=C/c1ccc(O)cc1)c1nc(-c2ccc(-c3ccccc3)cc2)cs1

a:
1. 153
2. 65
3. 71
4. 67
5. 115
6. 83
7. 83
8. 0

For each of the compounds below, state survival.
1. COc1ccc(-c2[nH]c(-c3ccc(O)cc3)nc2-c2ccccc2)cc1
2. O=C(Nc1cccc(C(=O)OCc2cc(=O)n3c4c(sc3n2)CCCC4)c1)c1cccc(Cl)c1
3. CCc1ccc(Nc2ncnc3sc4c(c23)CCCC4)cc1

a:
[0, 73, 68]

For each of the compounds below, state survival.
1. Cc1cc2c(cc1S(=O)(=O)CCC(=O)N1CCCCC1C)OCC(=O)N2 (configuration not stated)
2. COc1ccc(CCNc2nc3ccccc3c3nc(-c4cccc(C)c4)nn23)cc1OC
3. COc1ccccc1CNc1nc2ccccc2c2nc(-c3cccnc3)nn12

a:
1. 85
2. 24
3. 67

###

Test system: Wild type
Test Description: S. aureus survival, RN4220 and DeltatarO strains – OD600, teichoic acid synthesis inhibitors, primary screen (AID 463173)
Condition Context: S. aureus RN4220 wild type/DeltatarO growth, OD600, 18 h, stronger effect = lower value, screened at 18.75 µg/mL (by protocol)
Hit rate of the full screen: of about 52,000 compounds, about 1,700 (3.3%) were called active. The entries come from a sample that favours actives as a whole.
Give survival for every item shown.
One number for each entry, in %.

Recorded results for 3 compounds are shown here.
[
  {
    "Compound": "COc1ccccc1OCc1nc(-c2cccc(C)c2)no1",
    "Unit Spec": "%",
    "survival": 0
  },
  {
    "Compound": "O=C(Nc1ccc(F)cc1)c1ccc(CN2CC(=O)N3CCCCC3C2=O)cc1 (stereo unspecified)",
    "Unit Spec": "%",
    "survival": -6
  },
  {
    "Compound": "Cc1ccc(C(C)C)c(OCCCn2c(=O)oc3ccccc32)c1",
    "Unit Spec": "%",
    "survival": -2
  }
]

For each of the compounds below, state survival.
1. Cc1ccc2oc(=O)n(CCNC(=O)Nc3ccc(C)c(F)c3)c2c1
2. Cc1ccc(NC(=O)c2ccc(CN3CC(=O)N4CCCCC4C3=O)cc2)cc1 (stereo unspecified)
3. COc1ccc(C(=O)NCc2nc(-c3cccc(C)c3)no2)cc1OC
4. Cc1ccc(C(=O)c2sc(Nc3ccc(F)cc3)c(C#N)c2N)cc1
5. O=C(Nc1cc(F)ccc1F)c1ccc(CN2CC(=O)N3CCCCC3C2=O)cc1 (stereo unspecified)
6. Cc1cccc(NC(=O)NCCn2c(=O)oc3ccc(C)cc32)c1
7. Cc1ccc(C)c(CSc2nnc3[nH]c(=O)cc(-c4ccccc4)n23)c1

a:
1: 108; 2: -6; 3: 113; 4: 108; 5: 76; 6: 88; 7: 86

q: Return reported survival; argument: O=c1c2cc3c(nc2ncn1Cc1ccc(Cl)cc1)CCCC3
a: 76
